Biological target: Mu-type opioid receptor (Rattus norvegicus, UniProt P33535)
Sequence (P33535 whole entry): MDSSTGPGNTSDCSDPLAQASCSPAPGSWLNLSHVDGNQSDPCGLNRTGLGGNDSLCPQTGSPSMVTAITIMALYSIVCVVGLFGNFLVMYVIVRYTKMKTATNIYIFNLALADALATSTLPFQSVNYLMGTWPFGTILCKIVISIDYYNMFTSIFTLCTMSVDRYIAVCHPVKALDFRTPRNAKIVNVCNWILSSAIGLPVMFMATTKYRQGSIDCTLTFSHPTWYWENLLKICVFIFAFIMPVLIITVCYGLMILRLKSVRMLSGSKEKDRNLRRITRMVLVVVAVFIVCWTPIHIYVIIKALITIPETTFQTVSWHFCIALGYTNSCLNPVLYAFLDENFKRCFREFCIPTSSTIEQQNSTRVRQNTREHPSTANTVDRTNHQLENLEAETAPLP
Entries whose Ki is below 1 nM take class 1; entries at or above 1 nM take class 0.

Known results for compounds:
Smiles string: NC(=O)[C@H]1C/C=C/C[C@@H](NC(=O)[C@@H](N)Cc2ccc(O)cc2)C(=O)NCC(=O)N[C@@H](Cc2ccccc2)C(=O)N1
Category label: class 0

Smiles string: NC(=O)[C@H]1CCCC[C@@H](NC(=O)[C@@H](N)Cc2ccc(O)cc2)C(=O)NCC(=O)N[C@@H](Cc2ccccc2)C(=O)N1
Category label: class 0

Smiles string: NC(=O)[C@@H]1CCCC[C@@H](NC(=O)[C@@H](N)Cc2ccc(O)cc2)C(=O)NCC(=O)N[C@@H](Cc2ccccc2)C(=O)N1
Category label: class 0

### Prompt Ki strictly < 1 nM for this compound? `NC(=O)[C@@H]1C/C=C/C[C@@H](NC(=O)[C@@H](N)Cc2ccc(O)cc2)C(=O)NCC(=O)N[C@@H](Cc2ccccc2)C(=O)N1`
### Response class 1

### Prompt Ki strictly < 1 nM for this compound? `NC(=O)[C@H]1C/C=C\C[C@@H](NC(=O)[C@@H](N)Cc2ccc(O)cc2)C(=O)NCC(=O)N[C@@H](Cc2ccccc2)C(=O)N1`
### Response class 0

### Prompt Ki strictly < 1 nM for this compound? `NC(=O)[C@@H]1C/C=C\C[C@@H](NC(=O)[C@@H](N)Cc2ccc(O)cc2)C(=O)NCC(=O)N[C@@H](Cc2ccccc2)C(=O)N1`
### Response class 0

---

Would you kindly list log10 IC50 for each of these compounds?
Biological target: Delta-type opioid receptor (Mus musculus, UniProt P32300)
Sequence (P32300 whole entry): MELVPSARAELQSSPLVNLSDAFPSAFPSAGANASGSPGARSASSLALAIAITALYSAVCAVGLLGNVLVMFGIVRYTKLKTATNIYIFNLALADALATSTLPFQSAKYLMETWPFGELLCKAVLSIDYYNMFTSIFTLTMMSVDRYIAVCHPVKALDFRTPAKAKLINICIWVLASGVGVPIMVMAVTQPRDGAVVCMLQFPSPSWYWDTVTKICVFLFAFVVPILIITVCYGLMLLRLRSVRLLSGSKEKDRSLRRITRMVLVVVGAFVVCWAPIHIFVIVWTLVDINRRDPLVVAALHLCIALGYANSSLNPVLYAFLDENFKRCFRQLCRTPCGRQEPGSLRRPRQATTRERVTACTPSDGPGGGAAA
Test: Agonist activity at delta opioid receptor in mouse vas deferens
Recorded IC50 (log10, nM)

Consider the reported log10 IC50 for these compounds:
Smiles string: NC(=O)[C@H]1C/C=C/C[C@@H](NC(=O)[C@@H](N)Cc2ccc(O)cc2)C(=O)NCC(=O)N[C@@H](Cc2ccccc2)C(=O)N1
Property label: log10 IC50
Quantitative result: 0.64
//
Smiles string: NC(=O)[C@H]1CCCC[C@@H](NC(=O)[C@@H](N)Cc2ccc(O)cc2)C(=O)NCC(=O)N[C@@H](Cc2ccccc2)C(=O)N1
Property label: log10 IC50
Quantitative result: 0.56
//
Smiles string: NC(=O)[C@H]1C/C=C\C[C@@H](NC(=O)[C@@H](N)Cc2ccc(O)cc2)C(=O)NCC(=O)N[C@@H](Cc2ccccc2)C(=O)N1
Property label: log10 IC50
Quantitative result: 1.00
//
Smiles string: NC(=O)[C@@H]1C/C=C/C[C@@H](NC(=O)[C@@H](N)Cc2ccc(O)cc2)C(=O)NCC(=O)N[C@@H](Cc2ccccc2)C(=O)N1
Property label: log10 IC50
Quantitative result: -0.56

Parameters: items (list). Returns: log10 IC50 for each item.
1. NC(=O)[C@@H]1C/C=C\C[C@@H](NC(=O)[C@@H](N)Cc2ccc(O)cc2)C(=O)NCC(=O)N[C@@H](Cc2ccccc2)C(=O)N1
2. NC(=O)[C@@H]1CCCC[C@@H](NC(=O)[C@@H](N)Cc2ccc(O)cc2)C(=O)NCC(=O)N[C@@H](Cc2ccccc2)C(=O)N1

### Response
1: -0.30; 2: 0.50

---

Target: Mu-type opioid receptor (Cavia porcellus, UniProt P97266)
Sequence (P97266 whole entry): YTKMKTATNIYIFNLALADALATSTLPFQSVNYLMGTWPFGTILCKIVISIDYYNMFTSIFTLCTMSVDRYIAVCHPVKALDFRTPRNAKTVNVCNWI
Assay: Agonist activity at mu opioid receptor in guinea pig ileum
Would you kindly list IC50 for each of these molecules?
Numbers only, in nM.

Consider the reported IC50 for these molecules:
Smiles string: NC(=O)[C@H]1CCCC[C@@H](NC(=O)[C@@H](N)Cc2ccc(O)cc2)C(=O)NCC(=O)N[C@@H](Cc2ccccc2)C(=O)N1
IC50, nM: 11.2

Smiles string: NC(=O)[C@@H]1C/C=C\C[C@@H](NC(=O)[C@@H](N)Cc2ccc(O)cc2)C(=O)NCC(=O)N[C@@H](Cc2ccccc2)C(=O)N1
IC50, nM: 1.81

Smiles string: NC(=O)[C@H]1C/C=C\C[C@@H](NC(=O)[C@@H](N)Cc2ccc(O)cc2)C(=O)NCC(=O)N[C@@H](Cc2ccccc2)C(=O)N1
IC50, nM: 11.9

Smiles string: NC(=O)[C@H]1C/C=C/C[C@@H](NC(=O)[C@@H](N)Cc2ccc(O)cc2)C(=O)NCC(=O)N[C@@H](Cc2ccccc2)C(=O)N1
IC50, nM: 5.63

Smiles string: NC(=O)[C@@H]1CCCC[C@@H](NC(=O)[C@@H](N)Cc2ccc(O)cc2)C(=O)NCC(=O)N[C@@H](Cc2ccccc2)C(=O)N1
IC50, nM: 1.02

Here is the next item to consider.
// field: IC50; key: `NC(=O)[C@@H]1C/C=C/C[C@@H](NC(=O)[C@@H](N)Cc2ccc(O)cc2)C(=O)NCC(=O)N[C@@H](Cc2ccccc2)C(=O)N1` ; value = 0.898

---

Kappa-type opioid receptor (Cavia porcellus, UniProt P41144) measurements of log10(Ki), listed per entry.
Sequence (P41144 whole entry): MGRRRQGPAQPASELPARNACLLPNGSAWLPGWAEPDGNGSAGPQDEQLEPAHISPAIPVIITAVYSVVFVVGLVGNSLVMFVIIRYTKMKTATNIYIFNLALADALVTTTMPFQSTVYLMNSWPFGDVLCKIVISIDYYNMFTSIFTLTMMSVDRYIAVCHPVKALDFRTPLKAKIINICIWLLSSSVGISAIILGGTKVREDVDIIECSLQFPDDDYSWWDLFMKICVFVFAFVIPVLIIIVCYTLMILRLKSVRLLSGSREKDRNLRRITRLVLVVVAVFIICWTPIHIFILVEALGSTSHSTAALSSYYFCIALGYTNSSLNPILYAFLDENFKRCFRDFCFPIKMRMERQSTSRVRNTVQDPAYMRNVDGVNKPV
Recorded Ki (log10, nM)

Consider the reported log10(Ki) for these molecules:
Smiles string: NC(=O)[C@H]1C/C=C\C[C@@H](NC(=O)[C@@H](N)Cc2ccc(O)cc2)C(=O)NCC(=O)N[C@@H](Cc2ccccc2)C(=O)N1
Target or system: Kappa-type opioid receptor (Cavia porcellus, UniProt P41144)
log10(Ki): 2.70
--
Smiles string: NC(=O)[C@@H]1CCCC[C@@H](NC(=O)[C@@H](N)Cc2ccc(O)cc2)C(=O)NCC(=O)N[C@@H](Cc2ccccc2)C(=O)N1
Target or system: Kappa-type opioid receptor (Cavia porcellus, UniProt P41144)
log10(Ki): 2.49
--
Smiles string: NC(=O)[C@H]1CCCC[C@@H](NC(=O)[C@@H](N)Cc2ccc(O)cc2)C(=O)NCC(=O)N[C@@H](Cc2ccccc2)C(=O)N1
Target or system: Kappa-type opioid receptor (Cavia porcellus, UniProt P41144)
log10(Ki): 1.85
--
Smiles string: NC(=O)[C@@H]1C/C=C/C[C@@H](NC(=O)[C@@H](N)Cc2ccc(O)cc2)C(=O)NCC(=O)N[C@@H](Cc2ccccc2)C(=O)N1
Target or system: Kappa-type opioid receptor (Cavia porcellus, UniProt P41144)
log10(Ki): 1.76
--
Smiles string: NC(=O)[C@H]1C/C=C/C[C@@H](NC(=O)[C@@H](N)Cc2ccc(O)cc2)C(=O)NCC(=O)N[C@@H](Cc2ccccc2)C(=O)N1
Target or system: Kappa-type opioid receptor (Cavia porcellus, UniProt P41144)
log10(Ki): 1.48

Parameters: items (list). Returns: log10(Ki) for each item.
1. NC(=O)[C@@H]1C/C=C\C[C@@H](NC(=O)[C@@H](N)Cc2ccc(O)cc2)C(=O)NCC(=O)N[C@@H](Cc2ccccc2)C(=O)N1
2. NC(=O)[C@@H]1CSSC[C@@H](NC(=O)[C@@H](N)Cc2ccc(O)cc2)C(=O)NCC(=O)N[C@@H](Cc2ccccc2)C(=O)N1

### Response
1. 2.30
2. 1.60

---

Would you kindly list pKi for each of these compounds?
Biological target: Delta-type opioid receptor (Rattus norvegicus)
Sequence (P33533 whole entry): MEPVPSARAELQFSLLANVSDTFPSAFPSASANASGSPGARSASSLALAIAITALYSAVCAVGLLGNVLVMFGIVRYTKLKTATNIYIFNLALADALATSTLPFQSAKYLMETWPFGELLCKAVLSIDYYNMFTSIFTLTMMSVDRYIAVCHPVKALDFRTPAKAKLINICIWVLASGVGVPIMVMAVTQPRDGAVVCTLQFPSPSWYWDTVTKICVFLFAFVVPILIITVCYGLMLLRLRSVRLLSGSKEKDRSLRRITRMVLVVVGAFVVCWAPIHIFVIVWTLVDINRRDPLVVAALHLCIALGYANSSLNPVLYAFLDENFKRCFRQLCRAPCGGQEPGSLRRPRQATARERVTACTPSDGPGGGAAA
Test: Displacement of [3H]DSLET from rat brain delta opioid receptor
Answers are plain numbers, as −log10 of the molar value.

Consider the reported pKi for these compounds:
Smiles string: NC(=O)[C@H]1C/C=C/C[C@@H](NC(=O)[C@@H](N)Cc2ccc(O)cc2)C(=O)NCC(=O)N[C@@H](Cc2ccccc2)C(=O)N1
pKi: 8.72
//
Smiles string: NC(=O)[C@@H]1CCCC[C@@H](NC(=O)[C@@H](N)Cc2ccc(O)cc2)C(=O)NCC(=O)N[C@@H](Cc2ccccc2)C(=O)N1
pKi: 8.23
//
Smiles string: NC(=O)[C@H]1C/C=C\C[C@@H](NC(=O)[C@@H](N)Cc2ccc(O)cc2)C(=O)NCC(=O)N[C@@H](Cc2ccccc2)C(=O)N1
pKi: 8.15
//
Smiles string: NC(=O)[C@H]1CCCC[C@@H](NC(=O)[C@@H](N)Cc2ccc(O)cc2)C(=O)NCC(=O)N[C@@H](Cc2ccccc2)C(=O)N1
pKi: 8.48

Parameters: items (list). Returns: pKi for each item.
1. NC(=O)[C@@H]1C/C=C/C[C@@H](NC(=O)[C@@H](N)Cc2ccc(O)cc2)C(=O)NCC(=O)N[C@@H](Cc2ccccc2)C(=O)N1
2. NC(=O)[C@@H]1C/C=C\C[C@@H](NC(=O)[C@@H](N)Cc2ccc(O)cc2)C(=O)NCC(=O)N[C@@H](Cc2ccccc2)C(=O)N1

### Response
1: 8.90; 2: 8.18
